target: Alpha-bungarotoxin (Bungarus multicinctus) (UniProt P60615); assay: compounds binding labelled alpha-BTX control protein – biochemical, small-molecule microarray, Alexa647 label, 635/667 nm fluorescence, artefact control for SMM control protein annotation, profiling panel (AID 1117); details: alpha-BTX-A647 binding fluorescence, higher = more signal
Sequence (P60615 whole entry, looked up): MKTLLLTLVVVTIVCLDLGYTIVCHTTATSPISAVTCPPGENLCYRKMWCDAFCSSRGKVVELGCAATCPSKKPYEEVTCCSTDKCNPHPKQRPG
// not satisfied strictly below 0.1 in composite z-score; satisfied otherwise

* CN(C)C(=O)[C@]1(Cc2ccccc2)N=C(c2ccc(OCCCO)cc2)O[C@@H]1c1ccccc1CN=[N+]=[N-] | satisfied
* C=CCN1Cc2ccccc2[C@H]2OC(c3ccc(OCCCO)cc3)=N[C@@]2(CCS(=O)(=O)c2ccccc2)C1=O | satisfied
* Cc1ccc(F)cc1S(=O)(=O)N[C@H]1CCN(Cc2ccc(OC(C)C)cc2)C1 | not satisfied
* O=C(NC1CC1)[C@@H]1c2ccccc2C(=O)N(Cc2ccc(OC(F)(F)F)cc2)[C@H]1c1ccc(CO)cc1 | not satisfied
* CCCCC(O)C1C=CC2C(=O)N(c3ccccc3)C(=O)C2N1Nc1ccccc1 (stereo not drawn) | satisfied
* Cc1ccc(S[C@]2(C(=O)NC3CC3)CC(=O)N(C(C)C)[C@@H]2c2ccc(CO)cc2I)cc1 | not satisfied
* [N-]=[N+]=Nc1ccccc1C[C@]1(C(=O)N2CCOCC2)N=C(c2ccc(OCCCO)cc2)O[C@H]1c1ccccc1N=[N+]=[N-] | satisfied
* COC(=O)[C@@]1(Cc2ccc(OC)cc2)[C@H]2c3cc(C(=O)N4CCCC4)n(Cc4c(CO)[nH]cc(C)c4=O)c3C[C@H]2CN1C(=O)c1ccccc1 | satisfied
